Values from paper PMC6982702

TARGET_ENTITY: BACE1 (Homo sapiens, UniProt P56817)
Construct: purchased PanVera Co. (Invitrogen, USA)
Sequence (P56817 46-501): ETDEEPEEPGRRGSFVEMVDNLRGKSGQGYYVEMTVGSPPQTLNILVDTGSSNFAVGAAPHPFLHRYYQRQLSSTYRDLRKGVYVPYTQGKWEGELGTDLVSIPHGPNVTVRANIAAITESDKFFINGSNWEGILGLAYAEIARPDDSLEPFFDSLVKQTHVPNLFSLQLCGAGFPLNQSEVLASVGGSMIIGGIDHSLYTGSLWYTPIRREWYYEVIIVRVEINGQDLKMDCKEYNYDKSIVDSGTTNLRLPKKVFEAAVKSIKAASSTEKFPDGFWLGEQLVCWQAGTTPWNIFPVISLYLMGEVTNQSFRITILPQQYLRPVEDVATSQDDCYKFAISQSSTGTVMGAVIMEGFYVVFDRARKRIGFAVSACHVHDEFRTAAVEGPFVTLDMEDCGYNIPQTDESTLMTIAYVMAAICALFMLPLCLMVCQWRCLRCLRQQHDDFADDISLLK
ASSAY_METHOD_TEXT: In vitro BACE1 FRET enzyme assay
Assay type: biochemical
APPLIED_CONDITIONS: BACE1 FRET assay
Each record is given t if its reported IC50 is strictly below 4 µM. Records at or above 4 µM are given f.

Reference set, count: 10
smiles_notation=O=C(/C=C/c1ccc(O)cc1)OCCOc1ccc2oc(-c3ccc(O)c(O)c3)cc(=O)c2c1 group_label=f
smiles_notation=O=C(C=Cc1ccccc1)OCCOc1cc(O)c2c(=O)cc(-c3ccc(O)c(O)c3)oc2c1 group_label=t
smiles_notation=O=C(/C=C/c1ccc(O)cc1)OCCCCCOc1cc(O)c2c(=O)cc(-c3ccc(O)c(O)c3)oc2c1 group_label=f
smiles_notation=CN(C)c1ccc(/C=C/C(=O)OCCOc2cc(O)c3c(=O)cc(-c4ccc(O)c(O)c4)oc3c2)cc1 group_label=f
smiles_notation=O=C(/C=C/c1ccc(O)cc1)NCCOc1cc(O)c2c(=O)cc(-c3ccc(O)c(O)c3)oc2c1 group_label=f
smiles_notation=O=C(/C=C/c1ccoc1)OCCOc1cc(O)c2c(=O)cc(-c3ccc(O)c(O)c3)oc2c1 group_label=t
smiles_notation=O=C(CCc1ccc(O)cc1)OCCOc1cc(O)c2c(=O)cc(-c3ccc(O)c(O)c3)oc2c1 group_label=f
smiles_notation=O=C(/C=C/c1ccc(O)cc1)OCCOc1c(-c2ccc(O)c(O)c2)oc2cc(O)cc(O)c2c1=O group_label=f
smiles_notation=O=C(/C=C/c1ccc(O)cc1)OCCCOc1cc(O)c2c(=O)cc(-c3ccc(O)c(O)c3)oc2c1 group_label=f
smiles_notation=O=C(/C=C/c1cccnc1)OCCOc1cc(O)c2c(=O)cc(-c3ccc(O)c(O)c3)oc2c1 group_label=t

INPUT: Consider O=C(/C=C/c1ccc(O)cc1)OCCCCOc1cc(O)c2c(=O)cc(-c3ccc(O)c(O)c3)oc2c1 . Does its IC50 lie strictly below 4 µM?
OUTPUT: f

INPUT: Consider O=C(/C=C/c1cccc(O)c1)OCCOc1cc(O)c2c(=O)cc(-c3ccc(O)c(O)c3)oc2c1 . Does its IC50 lie strictly below 4 µM?
OUTPUT: t

INPUT: Consider O=C(/C=C/c1ccc(O)cc1)OCCOc1cccc2c(=O)cc(-c3ccc(O)c(O)c3)oc12 . Does its IC50 lie strictly below 4 µM?
OUTPUT: t

INPUT: Consider O=C(/C=C/c1ccc([N+](=O)[O-])cc1)OCCOc1cc(O)c2c(=O)cc(-c3ccc(O)c(O)c3)oc2c1 . Does its IC50 lie strictly below 4 µM?
OUTPUT: t

INPUT: Consider O=C(/C=C/c1ccc(O)cc1)OCCCCCCCCCCOc1cc(O)c2c(=O)cc(-c3ccc(O)c(O)c3)oc2c1 . Does its IC50 lie strictly below 4 µM?
OUTPUT: f
